Values were extracted from ChEMBL document CHEMBL1123580.

System: B16
measurement_notes: Effect on the survival of mouse B16 melanoma cells was determined at a dose of 10 ug/mL in vitro
Assay type: functional
protocol_conditions: read-out: Survival
Would you mind telling me the reported viability at 10 µg/mL of each entry?

Reference set (2 entries):
Cc1c(N)nc(C(CC(N)=O)NCC(N)C(N)=O)nc1C(=O)NC(C(=O)NC(C)C(O)C(C)C(=O)NC(C(=O)NCCc1nc(-c2nc(C(=O)NCCC[S+](C)CC(=O)NC3CC3)cs2)cs1)C(C)O)C(O[C@@H]1O[C@@H](CO)[C@@H](O)[C@@H](O)[C@@H]1O[C@H]1O[C@H](CO)[C@@H](O)[C@@H](OC(N)=O)[C@@H]1O)c1c[nH]cn1 (stereo partly drawn): 38%
CCOC(=O)C[S+](C)CCCNC(=O)c1csc(-c2csc(CCNC(=O)C(NC(=O)C(C)C(O)C(C)NC(=O)C(NC(=O)c3nc(C(CC(N)=O)NCC(N)C(N)=O)nc(N)c3C)C(O[C@@H]3O[C@@H](CO)[C@@H](O)[C@@H](O)[C@@H]3O[C@H]3O[C@H](CO)[C@@H](O)[C@@H](OC(N)=O)[C@@H]3O)c3c[nH]cn3)C(C)O)n2)n1 (stereo partly drawn): 43%

// recorded viability at 10 µg/mL for Cc1c(N)nc(C(CC(N)=O)NCC(N)C(N)=O)nc1C(=O)NC(C(=O)NC(C)C(O)C(C)C(=O)NC(C(=O)NCCc1nc(-c2nc(C(=O)NCCC[S+](C)CC(N)=O)cs2)cs1)C(C)O)C(O[C@@H]1O[C@H](CO)[C@H](O)[C@@H](O)[C@@H]1O[C@H]1O[C@@H](CO)[C@@H](O)[C@H](OC(N)=O)[C@H]1O)c1c[nH]cn1 (stereo partly drawn) : 38%
